Test system: Escherichia coli TOP10;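 further: peptides expressed intracellularly from a pBAD plasmid library in pooled LB shake-flask culture, induced with 0.3% L-arabinose, DNA abundance read by NGS, three biological replicates, DESeq2 with apeglm shrinkage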
Assay: shrunken log2 fold change of peptide-encoding DNA abundance (4.5 h post-induction vs induction); higher = less antimicrobial activity (less host growth inhibition)
Settings: time post-induction: 4.5 h; library: site-saturation at positions 5, 18, 19, 20
Please respond with reported shrunken log2 fold change for every item in the list.

>>> reported_value("RRIRTRPPRLPRPRPRPKTPPRP")
-0.0565
>>> reported_value("RRIRNRPPRLPRPRPRPYQVPRP")
-0.0131
>>> reported_value("RRIRNRPPRLPRPRPRPDFLPRP")
-0.342

Record shrunken log2 fold change per entry; entries follow.
1. RRIRLRPPRLPRPRPRPYFMPRP
2. RRIRRRPPRLPRPRPRPGFMPRP
3. RRIRLRPPRLPRPRPRPRPRPRP

# output
-0.855
0.252
0.823

Record shrunken log2 fold change per entry; entries follow.
1. RRIRLRPPRLPRPRPRPCRGPRP
2. RRIRYRPPRLPRPRPRPSNDPRP
3. RRIRERPPRLPRPRPRPYQYPRP
4. RRIRRRPPRLPRPRPRPQFSPRP
5. RRIRDRPPRLPRPRPRPLNNPRP

# output
[0.157, -0.29, -0.0129, -0.326, -0.305]

Record shrunken log2 fold change per entry; entries follow.
1. RRIRVRPPRLPRPRPRPLYSPRP
2. RRIRFRPPRLPRPRPRPADWPRP
3. RRIRIRPPRLPRPRPRPMCIPRP
4. RRIRWRPPRLPRPRPRPSLTPRP
5. RRIRHRPPRLPRPRPRPDTQPRP
6. RRIRHRPPRLPRPRPRPDYSPRP

# output
1. -0.343
2. 0.36
3. -0.232
4. 0.282
5. 0.047
6. -0.657

Record shrunken log2 fold change per entry; entries follow.
1. RRIRNRPPRLPRPRPRPQRQPRP
2. RRIRSRPPRLPRPRPRPRQMPRP
3. RRIRVRPPRLPRPRPRPCFGPRP
4. RRIRARPPRLPRPRPRPCADPRP
5. RRIRQRPPRLPRPRPRPFPSPRP

# output
[0.0149, 0.38, -0.263, 0.734, -0.0654]
